# measuredTarget: T1, GST (Pierce) (UniProt P08515 1-218 = GST, limits assumed)
# T1 construct: control for the GST part of the fusion protein; also called GST protein; Glutathione-S-transferase
# protocolSummary: array SPR, Ab immobilised
recordedMetric: binding result

anti-TMEM106B antibody TM-48 (antibody, V domains shown) VH: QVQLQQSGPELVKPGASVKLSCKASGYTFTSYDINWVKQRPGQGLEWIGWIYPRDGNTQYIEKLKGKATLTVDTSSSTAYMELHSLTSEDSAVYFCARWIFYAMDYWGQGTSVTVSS VL: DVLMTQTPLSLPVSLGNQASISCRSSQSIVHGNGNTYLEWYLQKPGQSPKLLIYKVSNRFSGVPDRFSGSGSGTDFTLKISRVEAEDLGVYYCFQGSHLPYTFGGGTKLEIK	no binding
anti-TMEM106B antibody TM-35 (antibody, V domains shown) VH: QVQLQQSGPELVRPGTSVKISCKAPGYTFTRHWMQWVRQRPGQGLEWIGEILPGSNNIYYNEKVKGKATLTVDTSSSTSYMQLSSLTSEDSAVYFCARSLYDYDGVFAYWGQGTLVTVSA VL: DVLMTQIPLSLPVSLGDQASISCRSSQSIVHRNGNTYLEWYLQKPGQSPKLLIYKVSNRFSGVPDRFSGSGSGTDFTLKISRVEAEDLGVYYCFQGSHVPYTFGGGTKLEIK	no binding
anti-TMEM106B antibody TM-51 (antibody, V domains shown, mouse IgG from hybridoma) VH: QVQLQQPGAELVKPGASVKLSCKASGYTFTTYWIDWVKQRPGQGLEWIGNMFPGSSRTNYNEKFKSRATLTVDTSSSTAYMQLSSLTSDDSAVYYCARKEGLWTYGYDGGAWFAYWGQGTLVTVSA VL: DIVMSQSPSSLAVSVGEKVTMSCKSSQSLRNSRTRKNYLAWYQQKPGQSPKLLIYWASTRESGVPDRFTGSGSGTDFTLTISSVQAEDLAIYYCKQSYNLLTFGAGTKLELK	no binding
